test system: DU-145 prostate; experiment: NCI-60 one-dose screen, 48 h; conditions: 10 µM unless noted
About 83,000 compounds went through this panel and 20% of them were active in at least one assay; those are over-represented in the sample as a whole. The source made the active and inactive calls. Rule for the calls: active = growth percent below 10; inactive = the rest.
Bench note: report the call from active, inactive

Task: Test call for this compound, please: C/C(=N/OC(=O)N(C)C)c1ccc(Cl)c(Cl)c1
Result: inactive

Task: Test call for this compound, please: CC[C@H](C)[C@H]1O[C@]2(C=C[C@@H]1C)C[C@@H]1C[C@@H](C/C=C(\C)[C@@H](O[C@H]3C[C@H](OC)[C@@H](O[C@H]4C[C@H](OC)[C@@H](NC)[C@H](C)O4)[C@H](C)O3)[C@@H](C)/C=C/C=C3\CO[C@@H]4[C@H](O)C(C)=C[C@@H](C(=O)O1)[C@]34O)O2
Result: active

Task: Test call for this compound, please: Cc1cc(N(CCCl)CCCl)ccc1C=Nc1ccc(-c2csc(-c3ccccc3)n2)cc1
Result: inactive

Others:
Task: Test call for this compound, please: CC[C@H](C)[C@H](NC(=O)[C@H]1CCCCN1C)C(=O)N(C)[C@H](CCc1nc(C(=O)N[C@@H](Cc2ccccc2)C[C@H](C)C(=O)O)cs1)C(C)C
Result: active

Task: Test call for this compound, please: N#Cc1ccc(Cl)cc1
Result: inactive

Task: Test call for this compound, please: CC[C@H](CC[C@@H](C)[C@H]1CC[C@H]2[C@@H]3CC[C@H]4C[C@]5(CC[C@]4(C)[C@H]3CC[C@]12C)OO[C@](C)(C(F)(F)F)O5)C(C)C
Result: inactive

Task: Test call for this compound, please: COC12CC3C4=CCOC5CC(=O)N6c7ccccc7C1(CCN2C4)C6C53 (stereo not drawn)
Result: inactive

Task: Test call for this compound, please: COc1ccn(C)c(=O)c1C#N
Result: inactive

Task: Test call for this compound, please: C/C(=C\c1ccn(-c2ccc(N)cc2F)n1)[C@@H]1C[C@@H]2O[C@]2(C)CCC[C@H](C)[C@H](O)[C@@H](C)C(=O)C(C)(C)[C@@H](O)CC(=O)O1
Result: active

Task: Test call for this compound, please: N#CCC(=O)c1ccccc1
Result: inactive

* * *

test system: NCI-H522 lung; assay: NCI-60 one-dose screen, 48 h; details: 10 µM unless noted
Compounds without any hit were thinned out: in the full panel of roughly 83,000, 20% have a hit. Active and inactive are the calls of the source. How the source made its calls: active means growth percent below 10; inactive means the rest.
Bench note: report the call from 1.0 for active, 0.0 for inactive

Task: Test call for this compound, please: CCN(CC)CCn1c(=O)n(C)c2ccccc21
Result: 0.0

Task: Test call for this compound, please: Cc1cc(Br)c([N+](=O)[O-])cc1[N+](=O)[O-]
Result: 1.0

Task: Test call for this compound, please: COC(=O)CCP(CCC(=O)OC)c1ccccc1
Result: 0.0

Task: Test call for this compound, please: CC1=C(C)C(=O)O[C@@H]([C@](C)(O)[C@]2(O)CC[C@@]3(O)[C@@H]4C[C@H]5O[C@]56CC=CC(=O)[C@]6(C)[C@H]4CC[C@]23C)C1
Result: 1.0

Task: Test call for this compound, please: Cc1c(C)c(N)c(C)c(C)c1N
Result: 0.0

Others:
Task: Test call for this compound, please: CCCn1cc2c3c(cccc31)[C@H]1C[C@@H](C)CN(C)[C@@H]1C2
Result: 0.0

Task: Test call for this compound, please: Nc1cccnc1
Result: 0.0

Task: Test call for this compound, please: O=C(CBr)OCCOC(=O)CBr
Result: 1.0

Task: Test call for this compound, please: [N-]=[N+]=CC(=O)CCC(=O)C=[N+]=[N-]
Result: 0.0

Task: Test call for this compound, please: C[C@@H]1C/C=C\C(=O)O[C@H](/C=C/C#C/C=C/C(C)(C)[C@@H](O)c2cccc(O)c2Br)[C@@H](C)/C=C/[C@H](C)C[C@H](OC(N)=O)C1
Result: 0.0

Task: Test call for this compound, please: CC(C)CCC1C(=O)NC(=O)NC1=O
Result: 0.0
